biological target: Peptidyl-prolyl cis-trans isomerase ESS1 (Saccharomyces cerevisiae (strain ATCC 204508 / S288c), UniProt P22696); test: Pin1 Inhibition Assay; details: pH 7; 0 °C
Sequence (P22696 whole entry): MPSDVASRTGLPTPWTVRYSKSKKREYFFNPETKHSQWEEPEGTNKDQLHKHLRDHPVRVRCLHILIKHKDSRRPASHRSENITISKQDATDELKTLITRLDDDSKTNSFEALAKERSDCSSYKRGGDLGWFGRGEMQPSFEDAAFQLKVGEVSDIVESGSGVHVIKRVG
In this section we review reported IC50 values for a set of molecules.
Form entry: value (µM) — number only.

{"columns": ["MOLECULE", "ASSAY_VALUE"],
 "data": [
  ["Cc1ccc(-c2cc([C@H]3[C@@H]4C=CCC[C@@]4(C)C(=O)N3Cc3ccccc3)ccc2F)cc1", 5],
  ["CCOC(=O)c1ccc(NC(=O)c2[nH]cnc2C(=O)N[C@@H](CCCCNC(=O)OC(C)(C)C)C(=O)OC(C)(C)C)cc1", 2.5]
]}

# IC50 lookup, item CC[C@@H]1CC=C[C@H]2[C@H]1C(=O)N(Cc1ccccc1)[C@H]2c1ccc(OC)c(Cl)c1
2

Queued: C[C@@]12CCC=C[C@H]1[C@H](c1ccc3ccccc3c1Br)N(Cc1ccccc1)C2=O
1.5

Queued: COc1ccc(C2CC(O)(c3ccccc3)Oc3c(C)ccc(C)c32)cc1 (centres undefined)
5

###

target: Peptidyl-prolyl cis-trans isomerase ESS1 (Saccharomyces cerevisiae (strain ATCC 204508 / S288c)); experiment: Pin1 Inhibition Assay; settings: pH 7; 0 °C
ASSAY_ENDPOINT: IC50

{"columns": ["CHEMICAL_STRING", "IC50"],
 "data": [
  ["COc1ccccc1-c1cc(=O)c2c(O)ccc([N+](=O)[O-])c2o1", "> 10 µM"],
  ["CC(C)C[C@H](NC(=O)c1[nH]cnc1C(=O)N1CCc2ccccc2C1)C(=O)OCc1ccccc1", "> 1.5 µM"],
  ["COc1ccc(Br)cc1[C@H]1[C@@H]2C=CCC[C@@]2(C)C(=O)N1Cc1ccccc1", "5 µM"]
]}

--- query ---
# IC50 lookup, item Cc1cccc(NC(=O)c2[nH]cnc2C(=O)N[C@@H](CCCCNC(=O)OC(C)(C)C)C(=O)OC(C)(C)C)c1
> 10 µM
